# Assayed Target: Full-length human glucagon-like peptide 1 receptor (human, UniProt P43220 24-463)
# Assay Method Text: cell-based or functional assay
*1 amine or outer side, *2 acyl side, *3 side chain or, on linkers, in order; H or OH if unused. Primed or numbered codes have the meaning given here. Where no end group is shown, it is not given here. [ ]: non-standard residue; d: D form. The star is where a group is joined. X1 = 4‑(2′-methylphenyl)‑3‑pyridylalanine, Cc1ccccc1-c1ccncc1C[C@H](N[*:1])C(=O)[*:2]; Bip(2′-Et-4′-OH-5′-I) = CCc1cc(O[*:3])c(I)cc1-c1ccc(C[C@H](N[*:1])C(=O)[*:2])cc1; Phe(4-(2-Et-4-HO-Ph)) = CCc1cc(O)ccc1-c1ccc(C[C@H](N)C(=O)O)cc1; IMeOp = 3-(1H-imidazol-4-yl)-2-methoxypropanoyl; αMePhe(2-F) = C[C@](N)(Cc1ccccc1F)C(=O)O; αMeP = C[C@@]1(C(=O)O)CCCN1; Moc = COC(=O)*
Observable: Mean Emax (%), stimulation of cAMP synthesis in CHO cells
Numbers only; they are read as %.

Sample records with Mean Emax (%), stimulation of cAMP synthesis in CHO cells:
Moc-H[αMeP]EGT[αMePhe(2-F)]TSD[Bip(2′-Et-4′-OH-5′-I)][X1]-NH2 [Compound of SEQ ID NO: 164]
97.2
[IMeOp][αMeP]EGT[αMePhe(2-F)]TSD[Phe(4-(2-Et-4-HO-Ph))][X1]-NH2 (also: IMeOp configuration (R or S) not determined) [Compound of SEQ ID NO: 173 (or 174)*]
95.6
[IMeOp][αMeP]EGT[αMePhe(2-F)]THD[Phe(4-(2-Et-4-HO-Ph))][X1]-NH2 (also: IMeOp configuration (S or R) not determined) [Compound of SEQ ID NO: 176 (or 175)*]
95.8

Look up Mean Emax (%), stimulation of cAMP synthesis in CHO cells: [IMeOp][αMeP]EGT[αMePhe(2-F)]THD[Phe(4-(2-Et-4-HO-Ph))][X1]-NH2 (also: IMeOp configuration (R or S) not determined) [Compound of SEQ ID NO: 175 (or 176)*]
105

For the binder Moc-H[αMeP]EGT[αMePhe(2-F)]TSD[Phe(4-(2-Et-4-HO-Ph))][X1]-NH2 [Compound of SEQ ID NO: 158] , what Mean Emax (%), stimulation of cAMP synthesis in CHO cells is on record?
101

State the recorded Mean Emax (%), stimulation of cAMP synthesis in CHO cells for this entry: [IMeOp][αMeP]EGT[αMePhe(2-F)]TSD[Phe(4-(2-Et-4-HO-Ph))][X1]-NH2 (also: IMeOp configuration (S or R) not determined) [Compound of SEQ ID NO: 174 (or 173)*]
104

So what's the measured Mean Emax (%), stimulation of cAMP synthesis in CHO cells for this one? Moc-H[αMeP]EGT[αMePhe(2-F)]THD[Phe(4-(2-Et-4-HO-Ph))][X1]-NH2 [Compound of SEQ ID NO: 157]
99.4
